Assay: Inhibition of PI3K (unknown origin)
Design: species or system Homo sapiens
Would you mind telling me the reported pIC50 of each entry?
Give only the number. pIC50 is defined as minus log10 of concentration in molar units.

Requested field: pIC50. Item: "CO[C@H]1OC(=O)/C(=C\SC(C)C)C2=C(O)C(=O)C3=C([C@H](OC(C)=O)C[C@]4(C)C(=O)CC[C@@H]34)[C@]21C"
10.00

Then this compound: "CO[C@H]1OC(=O)/C(=C\Sc2ccccc2)C2=C(O)C(=O)C3=C([C@H](OC(C)=O)C[C@]4(C)C(=O)CC[C@@H]34)[C@]21C"
9.30

Then this compound: "CO[C@H]1OC(=O)/C(=C\N(C2CC2)C2CC2)C2=C(O)C(=O)C3=C([C@H](OC(C)=O)C[C@]4(C)C(=O)CC[C@@H]34)[C@]21C"
9.52

Then this compound: "COC[C@H]1OC(=O)c2coc3c2[C@@]1(C)C1=C(C3=O)[C@@H]2CCC(=O)[C@@]2(C)C[C@H]1OC(C)=O"
9.10

---

Assay: Thiol reactivity of the compound in DMSO/PBS buffer assessed as adduct formation by measuring half life of parent compound by 1H NMR analysis
Format: physicochemical
quantity-kind: t1/2 (min)
Hi! Could you send only the number? It should be in min, unit omitted.

Requested field: t1/2. Item: N#CC(c1ccncc1)C(SCCO)C1CC1 (stereo unspecified)
11.9

Then this compound: N#Cc1ccc(C(C#N)C(SCCO)c2ccccc2)cc1 (stereo unspecified)
8.9

Then this compound: N#CC(c1ccncc1)C(SCCO)c1ccccc1 (stereo unspecified)
4.6

Then this compound: Cc1csc(C(C#N)C(SCCO)C2CC2)n1 (stereo unspecified)
4.8

---

Test: Reversible inhibition of human rhinovirus serotype 14 3C protease by fluorescence resonance energy transfer assay
Design: species or system rhinovirus B14
quantity-kind: Ki (nM)
Hi! Could you send only the number? It should be in nM, unit omitted.

Requested field: Ki. Item: "CC(C)C[C@H](NC(=O)OCc1ccccc1)C(=O)N[C@@H](Cc1ccccc1)C(=O)N[C@H](/C=C1\CCCOC1=O)CCC(N)=O"
30

---

Experiment: Thiol reactivity of the compound in PBS buffer assessed as adduct formation at 100 to 200 uM at pH 7.4 by UV-visible spectroscopic analysis
quantity-kind: pKd
Give only the number. pKd is defined as minus log10 of concentration in molar units.

Requested field: pKd. Item: CS(=O)(=O)c1ccc(-c2cccc(C(SCCO)C(C#N)C(N)=O)c2)cc1 (stereo not given)
3.70

Then this compound: N#CC(C(N)=O)C(SCCO)c1ccc(-n2ccnc2)cc1 (stereo not given)
2.89

Then this compound: N#CC(C(N)=O)C(SCCO)c1cccc2[nH]ccc12 (stereo not given)
2.21

Then this compound: N#CC(C(N)=O)C(SCCO)c1ccsc1 (stereo not given)
1.92

Then this compound: N#CC(C(N)=O)C(SCCO)c1c[nH]cn1 (stereo not given)
1.48

---

Experiment: Inhibition of wild-type HCV genotype 1b protease using 5-FAM/QXL 520 as substrate after 60 to 90 mins by FRET-based assay
Design: species or system Hepatitis C virus subtype 1b
quantity-kind: pIC50
Give only the number. pIC50 is defined as minus log10 of concentration in molar units.

Requested field: pIC50. Item: "C=CC(=O)NCC(=O)N1C[C@H](Oc2nccc3ccc(Br)cc23)C[C@H]1C(=O)N[C@]1(C(=O)CS(=O)(=O)C2CC2)C[C@H]1C=C"
8.70

Then this compound: "C=C[C@@H]1C[C@]1(NC(=O)[C@@H]1C[C@@H](Oc2nccc3ccc(Br)cc23)CN1C(=O)[C@@H](C)NC(=O)CC)C(=O)CS(=O)(=O)C1CC1"
5.94

Then this compound: "C=CC(=O)N[C@H](C)C(=O)N1C[C@H](Oc2nccc3ccc(Br)cc23)C[C@H]1C(=O)N[C@]1(C(=O)CS(=O)(=O)C2CC2)C[C@H]1C=C"
8.40
